Molecular target: SARS-COV-2 RBD extracellular domain expressed with a C-terminal mouse IgG2a (SARS-COV-2 RBD-mFc) (SARS-CoV-2)
Assay: SPR, captured mAb, RBD-mFc in solution, 37 C
The entries below are paired with their reported pKd.
Recall that pKd is obtained by taking minus log10 of the concentration measured in molar.

Solved cases below.
[
  {
    "binder": "mAb10971 (antibody, V domains shown) VH: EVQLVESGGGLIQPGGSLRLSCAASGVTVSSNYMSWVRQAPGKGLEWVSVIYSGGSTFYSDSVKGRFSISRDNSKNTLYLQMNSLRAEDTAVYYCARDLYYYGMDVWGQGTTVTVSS VL: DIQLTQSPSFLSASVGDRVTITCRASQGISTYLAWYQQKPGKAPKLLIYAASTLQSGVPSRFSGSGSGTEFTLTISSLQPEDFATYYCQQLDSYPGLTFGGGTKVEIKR",
    "valueObserved": 10.40
  },
  {
    "binder": "mAb10913 (antibody, V domains shown) VH: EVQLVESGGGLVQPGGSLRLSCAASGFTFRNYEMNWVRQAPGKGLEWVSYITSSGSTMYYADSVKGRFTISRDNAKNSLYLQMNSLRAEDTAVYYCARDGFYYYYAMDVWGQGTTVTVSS VL: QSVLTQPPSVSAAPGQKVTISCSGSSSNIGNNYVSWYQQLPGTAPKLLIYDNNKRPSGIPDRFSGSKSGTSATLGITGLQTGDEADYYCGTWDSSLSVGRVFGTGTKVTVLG",
    "valueObserved": 9.56
  }
]

Next, consider the following binder.
Query: What value of measured pKd is listed for mAb10957 (antibody, V domains shown) VH: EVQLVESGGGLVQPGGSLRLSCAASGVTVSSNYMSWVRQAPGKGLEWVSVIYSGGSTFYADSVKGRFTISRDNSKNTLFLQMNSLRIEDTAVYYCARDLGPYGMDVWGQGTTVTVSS VL: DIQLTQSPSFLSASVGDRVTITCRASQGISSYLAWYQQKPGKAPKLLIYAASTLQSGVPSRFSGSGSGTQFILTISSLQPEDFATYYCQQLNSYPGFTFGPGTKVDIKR ?
Reply: 10.33

Taken from patent US20240043504A1.
